The values you see were collected from patent US20240116985A1.

- MEASUREMENT_PROTOCOL: CHI Log D procedure
- Type: physicochemical
- EXPERIMENTAL_SETUP: pH 7.4
Reported CHI Log D is given for each of the following molecules.
Could you respond with only the numeric value?

>>> number("CC[C@H](C)[C@@H]1NC(=O)[C@H](CC(=O)O)NC(=O)[C@]2(CC=CCCCC3(CCCC=CCCCCCC[C@@](C)(C(=O)N[C@@H](Cc4ccccc4)C(=O)N[C@@H](Cc4csc5ccccc45)C(=O)N[C@@H](CCC(N)=O)C(N)=O)NC(=O)[C@H](CCC(N)=O)NC(=O)[C@H](Cc4ccccc4)NC(=O)[C@H](C)NC(=O)[C@H](CO)NC(=O)[C@H](CCC(=O)O)NC(=O)[C@H](CC(=O)O)NC3=O)NC1=O)CCCN2C(C)=O (some centres unmarked) [I-652]")
2.233

Please look up its CHI Log D: CC(=O)N[C@@H](Cc1ccccc1)C(=O)N[C@@H](CC(=O)O)C(=O)N[C@@H](C)C(=O)N[C@]1(C)CCCCCCC=CCOC(=O)N2CC[C@@](C(=O)N[C@@H](Cc3ccccc3)C(=O)N[C@@H](Cc3c[nH]c4ccccc34)C(=O)N[C@@H](CCC(N)=O)C(N)=O)(C2)NC(=O)[C@H](C(C)C)NC(=O)[C@H](CCc2ccccc2)NC(=O)[C@H](C)NC(=O)[C@H](C)NC(=O)[C@H](CC(=O)O)NC(=O)[C@H](CC(=O)O)NC1=O
1.545

Query (molecule): CC(=O)N1CCC[C@]12CC=CCCCC1(CCCC=CCCCOC(=O)N3CC[C@@](C(=O)N[C@@H](Cc4ccccc4Cl)C(=O)N[C@@H](Cc4csc5ccccc45)C(=O)N[C@H](C(N)=O)[C@@H](C)O)(C3)NC(=O)[C@H](CC(C)C)NC(=O)[C@H](Cc3ccccc3)NC(=O)[C@H](C)NC(=O)[C@H](C)NC(=O)[C@H](CCC(=O)O)NC(=O)[C@H](CC(=O)O)NC1=O)NC(=O)[C@H](CC(C)(C)C)NC(=O)[C@H](CC(=O)O)NC2=O (some centres unmarked) [I-1071] ; field requested: CHI Log D
2.218

Look up CHI Log D: CC(=O)N1CCC[C@]12CC=CCCCC1(CCCC=CCCCCCC[C@@](C)(C(=O)N[C@@H](Cc3ccccc3)C(=O)N[C@@H](Cc3csc4ccccc34)C(=O)N[C@@H](CCC(N)=O)C(N)=O)NC(=O)[C@H](CC(N)=O)NC(=O)[C@H](Cc3ccccc3)NC(=O)[C@H](C)NC(=O)[C@H](C)NC(=O)[C@H](CC(=O)O)NC(=O)[C@H](CC(=O)O)NC1=O)NC(=O)[C@H](C(C)C)NC(=O)[C@H](CC(=O)O)NC2=O (some centres unmarked) [I-567]
2.243

Find the recorded CHI Log D belonging to CC(=O)N1CCC[C@]12CC=CCCCC1(CCCC=CCCCCCC[C@@](C)(C(=O)N[C@@H](Cc3ccccc3)C(=O)N[C@@H](Cc3c[nH]c4ccccc34)C(=O)N[C@@H](CCC(N)=O)C(N)=O)NC(=O)[C@H](C(C)C)NC(=O)[C@H](Cc3cc(F)c(F)c(F)c3)NC(=O)[C@H](C)NC(=O)[C@H](C)NC(=O)[C@H](CCC(=O)O)NC(=O)[C@H](CC(=O)O)NC1=O)NC(=O)[C@H](C)NC(=O)[C@H](CC(=O)O)NC2=O (some centres unmarked) [I-210] and report it.
2.088
